Provide the reported melting point of each item.
The figure you give is taken to be in °C; do not add the unit.

// melting point value for CCc1nc2cc(CO)c(Cl)cc2n1-c1ccc(CCOC(=O)NS(=O)(=O)c2ccc(C)cc2)cc1 [Example 337] : 172.7

melting point reported for this compound Cc1ccc(S(=O)(=O)NC(=O)OCCc2ccc(-n3c(CCC(=O)c4ccccn4)nc4cc(C(F)(F)F)c(Cl)cc43)cc2)cc1 : 233.6

Query CCc1nc2c(C)cc(C)nc2n1-c1ccc(CC(C)OC(=O)NS(=O)(=O)c2ccc(C)cc2)cc1 (stereo not shown) [Example 7] yields melting point of 108

Query CCc1nc2cc(COC)c(Cl)cc2n1-c1ccc(CCOC(=O)NS(=O)(=O)c2ccc(C)cc2)cc1 yields melting point of 174.5

Form field melting point, entry Cc1ccc(S(=O)(=O)NC(=O)OCCc2ccc(-n3c(CCC(=O)N4CCCCC4)nc4cc(C(F)(F)F)c(Cl)cc43)cc2)cc1 : 210
